Parameter: Tmax. Scope: all listed entries.
Assay: Human plasma levels of Compounds Q through T after oral dosing with the Compound of Formula Q
Type: in vivo
Conditions: day 8 after 7 day dosing (120 mg, 4 doses/day) with the Compound of Formula Q

[
  {
    "COMPOUND": "CN1CCN2c3c(cccc31)[C@@H]1CN(CCCC(O)c3ccc(F)cc3)CC[C@@H]12 (stereo partly shown) [Compound S]",
    "TEST_READOUT": "Tmax",
    "RESULT": "3.5 h"
  }
]

Inquiry: Supply measured Tmax of O=C(CCCN1CC[C@H]2[C@@H](C1)c1cccc3c1N2CCN3)c1ccc(F)cc1 [Compound R] in your reply.
Reply text: 2.5 h

Inquiry: Supply measured Tmax of OC(CCCN1CC[C@H]2[C@@H](C1)c1cccc3c1N2CCN3)c1ccc(F)cc1 (stereo partly shown) [Compound T] in your reply.
Reply text: 6 h

Inquiry: Supply measured Tmax of CN1CCN2c3c(cccc31)[C@@H]1CN(CCCC(=O)c3ccc(F)cc3)CC[C@@H]12 [Compound Q] in your reply.
Reply text: 2.5 h

----------
Test: Human plasma levels of Compounds Q through T after oral dosing with the Compound of Formula Q
Assay type: in vivo
Conditions: day 8 after 7 day dosing (120 mg, 4 doses/day) with the Compound of Formula Q
Parameter: Cmax. Scope: all listed entries.
Please make sure the unit comes right after the number.

As a guide, the following entries are already answered.
[
  {
    "COMPOUND": "OC(CCCN1CC[C@H]2[C@@H](C1)c1cccc3c1N2CCN3)c1ccc(F)cc1 (stereo partly shown) [Compound T]",
    "RESULT": "38 ng/mL"
  },
  {
    "COMPOUND": "O=C(CCCN1CC[C@H]2[C@@H](C1)c1cccc3c1N2CCN3)c1ccc(F)cc1 [Compound R]",
    "RESULT": "37 ng/mL"
  },
  {
    "COMPOUND": "CN1CCN2c3c(cccc31)[C@@H]1CN(CCCC(O)c3ccc(F)cc3)CC[C@@H]12 (stereo partly shown) [Compound S]",
    "RESULT": "79 ng/mL"
  }
]

Then this compound:
Inquiry: Supply measured Cmax of CN1CCN2c3c(cccc31)[C@@H]1CN(CCCC(=O)c3ccc(F)cc3)CC[C@@H]12 [Compound Q] in your reply.
Reply text: 78 ng/mL

----------
Assay: Human plasma levels of Compounds Q through T after oral dosing with the Compound of Formula Q
Format: in vivo
Conditions: day 8 after 7 day dosing (120 mg, 4 doses/day) with the Compound of Formula Q
TEST_READOUT: AUC (ng·h/mL)
I only need the number, in ng·h/mL, no unit after it.

As a guide, the following entries are already answered.
[
  {
    "COMPOUND": "OC(CCCN1CC[C@H]2[C@@H](C1)c1cccc3c1N2CCN3)c1ccc(F)cc1 (stereo partly shown) [Compound T]",
    "TEST_READOUT": "AUC",
    "MEASURED_NUMBER": 517
  },
  {
    "COMPOUND": "CN1CCN2c3c(cccc31)[C@@H]1CN(CCCC(=O)c3ccc(F)cc3)CC[C@@H]12 [Compound Q]",
    "TEST_READOUT": "AUC",
    "MEASURED_NUMBER": 347
  }
]

Inquiry: Supply measured AUC of CN1CCN2c3c(cccc31)[C@@H]1CN(CCCC(O)c3ccc(F)cc3)CC[C@@H]12 (stereo partly shown) [Compound S] in your reply.
Reply text: 906

Inquiry: Supply measured AUC of O=C(CCCN1CC[C@H]2[C@@H](C1)c1cccc3c1N2CCN3)c1ccc(F)cc1 [Compound R] in your reply.
Reply text: 170

Hey, just so you know, these numbers are from patent US12269825B2.
